# Test system: infectious agents (strains tested)
# test_description: microbe, parasite or virus in culture
# Format: cell-based
# settings: Aspergillus flavus; read-out: MIC[90]
recorded_metric: MIC (µg/mL)
Write the number in µg/mL without appending the unit.

Per the records, this molecule ( C[C@@H]1[C@H](O)[C@@H](C)/C=C/C=C/C=C/C=C/C=C/C=C/C=C/[C@H](O[C@@H]2O[C@H](C)[C@@H](O)[C@H](N)[C@@H]2O)C[C@@H]2O[C@](O)(C[C@@H](O)C[C@@H](O)[C@H](O)CC[C@@H](O)C[C@@H](O)CC(=O)O[C@H]1C)C[C@H](O)[C@H]2C(=O)O ) has MIC equal to 2

Per the records, this molecule ( C[C@@H](c1ncncc1F)[C@](O)(Cn1cncn1)c1ccc(F)cc1F ) has MIC equal to 1

Per the records, this molecule ( CCC([C@@H](C)O)n1ncn(-c2ccc(N3CCN(c4ccc(OC[C@@H]5CO[C@@](Cn6cncn6)(c6ccc(F)cc6F)C5)cc4)CC3)cc2)c1=O (stereo partly shown) ) has MIC equal to 0.25

Per the records, this molecule ( CCC(C)n1ncn(-c2ccc(N3CCN(c4ccc(OCC5COC(Cn6cncn6)(c6ccc(Cl)cc6Cl)O5)cc4)CC3)cc2)c1=O (stereo not shown) ) has MIC equal to 1
